Source: ChEMBL document CHEMBL1156820

Target: Sigma non-opioid intracellular receptor 1 (Homo sapiens)
Sequence (Q99720 whole entry): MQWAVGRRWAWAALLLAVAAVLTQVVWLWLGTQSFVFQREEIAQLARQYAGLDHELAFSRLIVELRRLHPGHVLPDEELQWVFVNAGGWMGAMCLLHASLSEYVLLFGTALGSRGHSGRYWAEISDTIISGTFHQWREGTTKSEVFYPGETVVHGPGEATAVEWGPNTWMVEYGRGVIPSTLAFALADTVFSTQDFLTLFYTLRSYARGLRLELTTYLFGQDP
Assay: Displacement of [3H](+)-pentazocine from sigma1 receptor in human Jurkat cell membrane
pKi: −log10 of the molar value.
parameter: pKi

(A) c1ccc(CN2CCC(C3CCc4ccccc4S3)CC2)cc1 (racemic)
(B) c1ccc(CN2CCC3(CC2)OCc2ccccc2O3)cc1
(C) c1ccc(CN2CCC3(CCc4ccccc4S3)CC2)cc1
## Input // TODO: order the 3 compounds above by pKi, descending Please respond by ranking the labels in the order requested.
## Output A, B, C

(A) c1ccc(CN2CCC3(CC2)OCc2ccccc2S3)cc1
(B) O=C1CC2(CCN(Cc3ccccc3)CC2)Oc2ccccc21
(C) c1ccc(CN2CCC3(CCc4ccccc4C3)CC2)cc1
## Input Order the items by recorded pKi; the first position goes to the largest value. Sort and list the labels as requested.
## Output A, B, C

###

Assay: Selectivity for human sigma1 receptor over rat sigma2 receptor
parameter: Ki selectivity ratio (sigma2/sigma1)

1. c1ccc(CN2CCC3(CC2)OCc2ccccc2S3)cc1: 2510
2. c1ccc(CN2CCC3(CCc4ccccc4C3)CC2)cc1: 32
3. c1ccc(CN2CCC3(CCc4ccccc4S3)CC2)cc1: 676
4. c1ccc(CN2CCC(C3CCc4ccccc4S3)CC2)cc1 (racemic): 1000
5. O=C1CC2(CCN(Cc3ccccc3)CC2)Oc2ccccc21: 1440
6. O=C1CC(C2CCN(Cc3ccccc3)CC2)Oc2ccccc21 (racemic): 2630
7. c1ccc(CN2CCC3(CCc4ccccc4O3)CC2)cc1: 36

(1) O=C1CC(C2CCN(CCc3ccccc3)CC2)Oc2ccccc21 (racemic)
(2) c1ccc(CN2CCC3(CC2)OCc2ccccc2O3)cc1
## Input When the recorded Ki selectivity ratio (sigma2/sigma1) values are compared, which is smaller: that of 1 or that of 2 ? Identify your selection by its label.
## Output 1
